FYI, the data here is from PubChem BioAssay (NCI).

- Test system: SNB-19 CNS
- TEST NAME: NCI tumour cell line growth inhibition, 48 h; in the data active = GI50 below about 0.43 µM; inactive = the rest
Labels: TRUE for active, FALSE for inactive

>>> df
                                    compound  discrete_label
 0        Cc1ccc2[nH]c3c(c2c1)N=c1ccccc1=NO3           FALSE
 1  O=P(O)(O)OCC1OC(n2cnc3c(NCc4ccco4)ncnc32)C(O)C1O (stereo not given)           FALSE
 2  O=C1Nc2ccccc2/C1=C\c1cccc(/C=C2/C(=O)Nc3ccccc32)n1           FALSE
 3  CC(CN(C)C)S(=O)(=O)c1ccc(-c2cnc(N)c(C(=O)Nc3ccccc3)n2)cc1 (stereo not given)           FALSE
 4  O=C1/C(=C/c2ccc(F)c(F)c2)CN(C(=O)C(Cl)Cl)C/C1=C\c1ccc(F)c(F)c1            TRUE
 5  Clc1ccccc1[C@@H]1C[C@@H]2Cc3cc(Br)c4ccccc4c3N1O2           FALSE
 6        COc1ccc(C(C#N)=C2C=CC(=NO)C=C2)cc1           FALSE
 7  C=C(C)[C@@H]1C/C=C(/CO)CC[C@H]2O[C@]2(C)CC/C=C(\C)CC1           FALSE
 8  O=C1NCN(c2ccccc2)C12CCN(CCCC(c1ccc(F)cc1)c1ccc(F)cc1)CC2           FALSE
 9      Oc1[nH]c(N=C2N=c3ccccc3=N2)c2ccccc12           FALSE
10  COc1cccc(OC(=O)c2ccc(C(F)(F)F)nc2Nc2c(C)cccc2Cl)c1           FALSE
11  C=C1C(=O)O[C@H]2[C@H]1CC/C(COC(=O)c1cn(C)c3ccccc13)=C\CC[C@@]1(C)O[C@@H]21           FALSE
12  C[C@]12CC[C@@H]3c4ccc(O)cc4CC[C@H]3[C@@H]1CC[C@@H]2NS(=O)(=O)c1cccc(Cl)c1           FALSE
13  CC/C=C\C[C@H](O)C/C=C1/C(=O)C=C[C@@H]1C/C=C\CCCC(=O)OC(C)C           FALSE
14  Cc1cc(C(=O)Nc2cc(Oc3ccc4nc(NC(=O)C5CC5)cn4n3)ccc2C)n(C)n1           FALSE

====

- System: TK-10 renal
- TEST NAME: NCI tumour cell line growth inhibition, 48 h; in the data active = GI50 below about 0.43 µM; inactive = the rest
Possible outcomes: 1 (active), 0 (inactive)

                                   compound       system  discrete_label
0  COc1ccc(N2C(=O)/C(=C/C(Cl)=C/c3ccc([N+](=O)[O-])cc3)SC2=S)cc1  TK-10 renal               0
1  O=C1OCC(c2ccc(O)cc2)=C1c1cc(O)c(O)c(O)c1  TK-10 renal               0
2  CCC[CH2][Sn]([CH2]CCC)([CH2]CCC)[O]C(=O)C(OC(C)=O)c1ccccc1 (stereo not given)  TK-10 renal               1
3  CC/C=C\C[C@H](O)C/C=C1/C(=O)C=C[C@@H]1C/C=C\CCCC(=O)OC(C)C  TK-10 renal               0
4       C=CCNc1nc(O)c(/C=C2\C=Nc3ncccc32)s1  TK-10 renal               0
